# TEST SYSTEM: UniProt P50406
# Sequence (P50406 whole entry): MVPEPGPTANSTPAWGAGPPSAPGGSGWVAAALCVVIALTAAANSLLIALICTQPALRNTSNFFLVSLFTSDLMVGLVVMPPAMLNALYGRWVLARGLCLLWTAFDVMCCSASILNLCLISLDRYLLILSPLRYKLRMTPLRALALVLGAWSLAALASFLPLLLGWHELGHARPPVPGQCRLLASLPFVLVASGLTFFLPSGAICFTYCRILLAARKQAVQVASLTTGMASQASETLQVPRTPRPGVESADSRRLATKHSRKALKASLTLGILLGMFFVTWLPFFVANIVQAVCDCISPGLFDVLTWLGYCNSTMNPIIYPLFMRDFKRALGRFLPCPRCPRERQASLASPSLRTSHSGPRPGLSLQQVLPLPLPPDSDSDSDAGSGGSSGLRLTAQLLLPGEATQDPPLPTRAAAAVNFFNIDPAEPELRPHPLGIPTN
PARAMETER MEASURED: Ki

See these solved cases before continuing.
Query string: Return reported Ki; argument: Cl.NCCc1cccc2c(S(=O)(=O)c3ccccc3)n[nH]c12 [Example 174, Hydrochloride]
Result string: 0.01 to 10 nM

Query string: Return reported Ki; argument: CCNCCOc1cccc2c(S(=O)(=O)c3cccc4ccccc34)n[nH]c12
Result string: 11 to 25 nM

Query string: Return reported Ki; argument: CCNCCOc1cccc2c(S(=O)(=O)c3cccc4ccccc34)nn(C)c12
Result string: 0.01 to 10 nM

Others:
Query string: Return reported Ki; argument: CNCCOc1ccc2c(c1)c(S(=O)(=O)c1cccc3ccccc13)nn2Cc1cccc(Cl)c1
Result string: > 45 nM

Query string: Return reported Ki; argument: CCNCCCOc1cccc2c(S(=O)(=O)c3cccc4ccccc34)n[nH]c12
Result string: 36 to 45 nM

Query string: Return reported Ki; argument: CN(C)CCOc1ccc2[nH]nc(S(=O)(=O)c3ccccc3)c2c1
Result string: 11 to 25 nM

Query string: Return reported Ki; argument: Cn1nc(S(=O)(=O)c2cccc3ccccc23)c2cc(OCCN3CCCC3)ccc21
Result string: 0.01 to 10 nM

Query string: Return reported Ki; argument: CC1CN(Cc2ccc3[nH]nc(S(=O)(=O)c4cccc5ccccc45)c3c2)CCN1 (centres unmarked)
Result string: 0.01 to 10 nM

Query string: Return reported Ki; argument: COc1cc(OCCN2CCCC2)c2[nH]nc(S(=O)(=O)c3cccc4ccccc34)c2c1
Result string: 11 to 25 nM

Query string: Return reported Ki; argument: CCNCCCOc1cccc2c(S(=O)(=O)c3cccc4ccccc34)nn(Cc3cccc(Cl)c3)c12
Result string: > 45 nM

Query string: Return reported Ki; argument: CC(C)NCCCc1ccc2[nH]nc(S(=O)(=O)c3cccc4ccccc34)c2c1
Result string: 0.01 to 10 nM
